Readings of IC50 for the listed compounds
procedure summary: Phototoxicity in normal human keratinocytes after 24 hrs incubation in dark by WST1 assay
Assay type: cell-based
measurement context: Keratinocyte, light or radiation study

Use the examples below as a reference point.
1. CC(C)(C)OC(=O)Nc1ccc2cc3ccc(NC(=O)OC(C)(C)C)cc3nc2c1: > 50 µM
2. CCCC(=O)Nc1ccc2cc3ccc(NC(=O)CCC)cc3nc2c1: > 50 µM
3. Nc1ccc(C(=O)Nc2ccc3cc4ccc(NC(=O)c5ccc(N)cc5)cc4nc3c2)cc1: > 50 µM

Exercise: What value of IC50 has been recorded for this entry: `O=C(Nc1ccc2cc3ccc(NC(=O)c4ccco4)cc3nc2c1)c1ccco1`
Key: 34.1 µM
